Value source: paper PMC2756588

- test_system: T1, Pin3, Q06449
- T1 sequence (Q06449 53-122, looked up): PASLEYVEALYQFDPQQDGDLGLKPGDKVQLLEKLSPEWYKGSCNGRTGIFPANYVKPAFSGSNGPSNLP
- measurement_notes: SPOT array
- assay_context: median of control spots 2171
measured_quantity: SPOT intensity

INSERT INTO results (binder, measured_quantity, endpoint_result) VALUES
  ('NPLPKEPRLPKRKVA', 'SPOT intensity', 10),
  ('LKQRFFLMFPKSIIW', 'SPOT intensity', 54),
  ('SSTPTTPERPKRKSG', 'SPOT intensity', 6),
  ('DRIRMFIRFPKFLLE', 'SPOT intensity', 30),
  ('RRRIAYPFYPFKKLG', 'SPOT intensity', 0),
  ('RNNRPVPPPPPMRTT', 'SPOT intensity', 31),
  ('DGNEEKPLLPTRPNK', 'SPOT intensity', 0);
